// provenance: PubChem BioAssay (NCATS)

assay: Primary fluorescence-based thiol-reactive (MSTI) qHTS assay for identification of artifact compounds. (AID 1845221); settings: MSTI thiol-reactivity probe, 1 h; series mostly up to 53.8 µM;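 note: thiol-reactive compounds lower the probe fluorescence signal; nearly all actives have a fitted effect of over 65% in size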
Records with an inconclusive call do not appear. Calls of active or inactive are those of the source. Calls come from the whole dose curve; as a rule, active = well fitted inhibition curve with a large enough effect; inconclusive = small, poorly fitted or top-dose-only effect; inactive = no such curve, though single readings can be large or run the other way.
OBSERVED_PROPERTY: activity change, negative = thiol reactive

Q: Recorded activity change, negative = thiol reactive of CC1(C)CC[C@]23CO[C@@]4(CCC5[C@@]6(C)CC[C@H](O[C@@H]7OC[C@H](O[C@@H]8O[C@H](CO)[C@@H](O)[C@H](O)[C@H]8O[C@@H]8OC[C@@H](O)[C@H](O)[C@H]8O)[C@H](O)[C@H]7O[C@@H]7O[C@H](CO)[C@@H](O)[C@H](O)[C@H]7O)[C@@](C)(CO)C6CC[C@@]5(C)[C@]4(C)C[C@H]2O)[C@@H]3C1 (some centres undefined) , please.
Ans: 317% [at 11.5 µM] (inactive)

Q: One more molecule: CNC1CN(c2ccc3c(=O)c(C(=O)O)cn(-c4nccs4)c3n2)CC1OC (centres undefined)
Ans: -3.65% [at 11.5 µM] (inactive)

Q: One more molecule: "COc1c(C)cc(NC(=O)c2nn(Cc3ccc(F)cc3)c3c2CN(C(=O)c2ccc[nH]2)C[C@]3(C)C(N)=O)cc1C"
Ans: 108% [at 11.5 µM] (inactive)

Q: One more molecule: CCC(C)(OC(C)=O)C(=O)O[C@H]1[C@H](OC(C)=O)[C@]2(CO)[C@H](O)[C@H](O)[C@]3(C)C(=CCC4[C@@]5(C)CC[C@H](O[C@@H]6O[C@H](C(=O)O)[C@@H](O)[C@H](O[C@@H]7OC[C@H](O)[C@H](O[C@@H]8OC[C@H](O)[C@H](O)[C@H]8O)[C@H]7O)[C@H]6O[C@@H]6O[C@H](CO)[C@@H](O)[C@H](O)[C@H]6O)C(C)(C)C5CC[C@]43C)[C@@H]2CC1(C)C (some centres undefined)
Ans: 202% [at 11.5 µM] (inactive)

Q: One more molecule: CC1OC(OC2C(O)COC(O[C@@H]3[C@@H](O)[C@@H](O)[C@H](OC4C(OC(=O)[C@]56CCC(C)(C)CC5C5=CCC7[C@@]8(C)C[C@H](O)[C@H](OC9OC(CO)C(O)C(O)C9O)[C@@](C)(CO)C8[C@H](O)C[C@@]7(C)[C@]5(C)CC6)OCC(O)C4O)O[C@H]3C)C2O)C(O)C(O)C1O (some centres undefined)
Ans: 417% [at 11.5 µM] (inactive)

Q: One more molecule: C=CC(C)(O)CC/C=C(\C)C(=O)OC1C(O)C(CO)OC(OC(=O)C23CCC(C)(C)CC2C2=CCC4C5(C)CCC(OC6OC(COC7OCC(OC(C)=O)C(O)C7OC7OC(COC(C)=O)C(O)C(O)C7OC(C)=O)C(O)C(O)C6OC6OCC(O)C(O)C6O)C(C)(C)C5CCC4(C)C2(C)C(O)C3O)C1OC1OCC(OC2OCC(O)C(OC3OCC(O)C(O)C3O)C2O)C(O)C1O (centres undefined)
Ans: 140% [at 6.41 µM] (inactive)

Q: One more molecule: "COc1ccc(CN2CCN(CCCSc3cc(C(C)(C)C)c(O)c(C(C)(C)C)c3)CC2)c(OC)c1OC"
Ans: 2.62% [at 11.5 µM] (inactive)

Q: One more molecule: CO[C@H]1[C@@H](O)[C@H](O[C@H]2CC[C@@]3(C)C(CCC4C3CC[C@]35COC6(COC(=O)C6)C3CCC45O)C2)O[C@@H](C)[C@@H]1OC1OC(CO)C(OC2OC(CO)C(O)C(O)C2O)C(O)C1O (some centres undefined)
Ans: 77.5% [at 11.5 µM] (inactive)

Q: One more molecule: C[C@H]1CC[C@@]2(OC1)O[C@H]1CC3[C@@H]4CC[C@@H]5C[C@@H](O[C@@H]6O[C@H](CO)[C@@H](O[C@@H]7O[C@@H](C)[C@H](O)[C@@H](O)[C@H]7O)[C@H](O)[C@H]6O[C@@H]6O[C@H](CO)[C@@H](O)[C@H](O)[C@H]6O)CC[C@]5(C)C4CC[C@]3(C)[C@H]1[C@@H]2C (some centres undefined)
Ans: 131% [at 11.5 µM] (inactive)
